Tested on: SARS-CoV-2 (US/WA1/2020 isolate)
Test: SARS-CoV-2 infection of cells (dsRNA staining, RT-qPCR of viral RNA)
Format: cell-based
Conditions: Severe acute respiratory syndrome coronavirus 2; Calu-3 and Vero E6 cells, 72 hours; read-out: IC50 for inhibiting viral replication
pIC50: −log10 of the molar value.
Observed property: pIC50

// query GET /values?readout=pIC50&item= O=C(CCl)Nc1ccc2c(c1)NC(=O)CO2 [Compound 1]
// result > 4.70

* * *

IC50 listing for selected compounds.
Target: PLpro from SARS-CoV-2 (Severe acute respiratory syndrome coronavirus 2)
Number in µM, nothing else.

Example results:
Smiles entry	Assayed system	IC50, µM
O=S(=O)(F)c1cncc(Cl)n1	PLpro from SARS-CoV-2 (Severe acute respiratory syndrome coronavirus 2)	1.7
C=CS(=O)(=O)c1nc2ccccc2s1	PLpro from SARS-CoV-2 (Severe acute respiratory syndrome coronavirus 2)	1
O=C1COc2cc([N+](=O)[O-])c(NC(=O)CCl)cc2N1	PLpro from SARS-CoV-2 (Severe acute respiratory syndrome coronavirus 2)	5
O=C(CCl)Nc1ncc([N+](=O)[O-])s1	PLpro from SARS-CoV-2 (Severe acute respiratory syndrome coronavirus 2)	13
O=C(NCCc1ccc(F)cc1)n1ccnc1	PLpro from SARS-CoV-2 (Severe acute respiratory syndrome coronavirus 2)	2.5

// query Hello, I am looking for reported IC50 with PLpro from SARS-CoV-2 (Severe acute respiratory syndrome coronavirus 2) for O=C(CCl)Nc1ccc2c(c1)NC(=O)CO2 . Could you help?
// result 18

// query Hello, I am looking for reported IC50 with PLpro from SARS-CoV-2 (Severe acute respiratory syndrome coronavirus 2) for O=C(CCl)Nc1cc2c(cc1Br)CCC(=O)N2 . Could you help?
// result 6

// query Hello, I am looking for reported IC50 with PLpro from SARS-CoV-2 (Severe acute respiratory syndrome coronavirus 2) for Cn1ncc(C(=O)CCl)n1 . Could you help?
// result 0.3
